# assay: Viability qHTS for spleen associated tyrosine kinase inhibitor (SYKi) naive MV4-11 cells (AID 1963823); note: nearly all actives have a fitted effect of over 40% in size
# condition_details: MV4-11 AML viability, CellTiter-Glo luminescence, 72 h; series mostly up to 45 µM
Inconclusive results are not listed. The source made the active and inactive calls. Calls come from the whole dose curve; as a rule, active = well fitted cell-killing curve with a large enough effect; inconclusive = small, poorly fitted or top-dose-only effect, or effect the other way; inactive = no such curve, though single readings can be large or run the other way.
Outcomes: 1.0 = active, 0.0 = inactive

[
  {
    "compound": "COc1cc(NC(=O)c2cc(C3CC3)on2)c(OC)cc1Cl",
    "category_label": 0.0
  },
  {
    "compound": "CC1(C)CC[C@]23CO[C@@]4(CCC5[C@@]6(C)CC[C@H](O[C@@H]7OC[C@H](O[C@@H]8O[C@H](CO)[C@@H](O)[C@H](O)[C@H]8O[C@@H]8OC[C@@H](O)[C@H](O)[C@H]8O)[C@H](O)[C@H]7O[C@@H]7O[C@H](CO)[C@@H](O)[C@H](O)[C@H]7O)[C@@](C)(CO)C6CC[C@@]5(C)[C@]4(C)C[C@H]2O)[C@@H]3C1 (stereo partly drawn)",
    "category_label": 1.0
  },
  {
    "compound": "Cc1nc2c(O)cccc2c(=O)[nH]1",
    "category_label": 0.0
  },
  {
    "compound": "CN(C)CCCN1c2ccccc2CCc2ccc(Cl)cc21",
    "category_label": 1.0
  },
  {
    "compound": "Cc1onc(-c2ccccc2)c1C(=O)N[C@@H]1C(=O)N2[C@@H]1SC(C)(C)[C@@H]2C(=O)O",
    "category_label": 0.0
  },
  {
    "compound": "CN(C)C/C=C/C(=O)Nc1cc2c(Nc3ccc(F)c(Cl)c3)ncnc2cc1OC1CCOC1 (stereo not drawn)",
    "category_label": 1.0
  },
  {
    "compound": "C=CC(=O)N1CCN(C(=O)CNc2cc(I)c(Cl)cc2O)CC1",
    "category_label": 1.0
  },
  {
    "compound": "C=C(C)C(=O)O[C@H]1C[C@@](C)(OC(C)=O)[C@@]2(O)CC[C@@](C)(O)[C@H](OC(C)=O)[C@@]23OC(=O)C(COC)=C13",
    "category_label": 1.0
  }
]
